A compilation of IC50 values for UniProtKB P11712 from the published literature.

Fc1ccc(Nc2ncc(Cc3c[nH]c4ncc(Cl)cc34)cn2)cc1
> 10 µM

Find IC50 (UniProtKB P11712) for the entry CSc1ccc2nc(C(O)(c3ccncn3)C(C)C)ccc2c1 (stereo not shown)
3.3 µM

Find IC50 (UniProtKB P11712) for the entry "C[C@H](c1ccc(F)cc1)n1cncc1CN1CCN(S(=O)(=O)c2cnc(N3CCN4C[C@H](O)C[C@H]4C3=O)s2)CC1"
2.3 µM

Find IC50 (UniProtKB P11712) for the entry "C[C@H](c1ccc(F)cc1)n1cncc1CN1CCN(S(=O)(=O)c2cnc(N3C[C@@H]4C[C@@H](O)CN4C[C@@H]3C)s2)CC1"
1.16 µM

Find IC50 (UniProtKB P11712) for the entry "Cc1ccc(C2(n3cncc3CN3CCN(S(=O)(=O)c4cnc(N5CCN(C)CC5)s4)CC3)CC2)nc1"
> 10 µM

Find IC50 (UniProtKB P11712) for the entry "Cc1cc(C(=O)Nc2ccc(F)c([C@]3(C)C=CSC(N)=N3)c2)n(C)c1"
> 20 µM

Find IC50 (UniProtKB P11712) for the entry "CCOc1cc2c(cc1OC)-c1c/c(=N\c3c(C)cc(C)cc3C)n(CCNC(=O)c3[nH]nnc3OC)c(=O)n1CC2"
20 µM
